Values from patent US20180186769A1

experiment: Clearance in hepatocytes, rat; type: in vitro ADME; conditions: 0.1 microM, read-out: CLint, Rat (L/h/kg) ± SD (converted)

Compound Structure String	CLint scaled at 0.1 µM / L/h/kg
[2H]C([2H])([2H])Oc1cnc(C(=O)Nc2ccc(F)c([C@]3(C)CC[C@@](F)(CF)C(N)=N3)c2)cn1	1.5
[2H]C([2H])([2H])Oc1ccc(C(=O)Nc2ccc(F)c([C@@]3(C(F)F)N=C(N)CCC3(F)F)c2)nc1	1.4
COc1cnc(C(=O)Nc2ccc(F)c([C@]3(C)CC[C@@](F)(CF)C(N)=N3)c2)cn1	1.7

----------
experiment: Bioanalysis of brain and plasma samples (UPLC-MS/MS); type: in vivo, Sprague Dawley rats; details: male, Sprague-Dawley, brain, po; rat, p.o., 40 mg/kg, 12 h; read-out: Mean rat brain conc.
Measured Metric: concentration at 12 h (ng/g)

Compound Structure String	Units	Reported Result
[2H]C([2H])([2H])Oc1cnc(C(=O)Nc2ccc(F)c([C@]3(C)CC[C@@](F)(CF)C(N)=N3)c2)cn1	ng/g	1100

----------
test: Bioanalysis of brain and plasma samples (UPLC-MS/MS); type: in vivo, Sprague Dawley rats; conditions: male, Sprague-Dawley, plasma, po; rat, p.o., 20 mg/kg, 12 h; read-out: Mean rat plasma conc.

Compound Structure String	Units	concentration at 12 h
[2H]C([2H])([2H])Oc1cnc(C(=O)Nc2ccc(F)c([C@]3(C)CC[C@@](F)(CF)C(N)=N3)c2)cn1	ng/mL	159

----------
assay: Bioanalysis of brain and plasma samples (UPLC-MS/MS); type: in vivo, Sprague Dawley rats; settings: male, Sprague-Dawley, brain/plasma, po; rat, p.o., 20 mg/kg, 6 h; read-out: Brain/Plasma ratio
Measured Metric: Kp at 6 h

Compound Structure String	Reported Result
[2H]C([2H])([2H])Oc1cnc(C(=O)Nc2ccc(F)c([C@]3(C)CC[C@@](F)(CF)C(N)=N3)c2)cn1	3.2

----------
Listing: efflux ratio at 60 min, 0.5 μM of selected compounds
test system: P-gp (MDR1); assay: MDCK-MDR1 assay (permeability, efflux ratio); format: in vitro ADME; conditions: dog, Papp BA/Papp AB
Measured Metric: efflux ratio at 60 min, 0.5 μM

Compound Structure String	Measured Metric	Reported Result
[2H]C([2H])([2H])Oc1cnc(C(=O)Nc2cc(F)c(F)c([C@]3(C)CC[C@@](F)(CF)C(N)=N3)c2)cn1	efflux ratio at 60 min, 0.5 μM	0.77
[2H]C([2H])([2H])Oc1cnc(C(=O)Nc2ccc(F)c([C@]3(C)CC[C@@](F)(CF)C(N)=N3)c2)cn1	efflux ratio at 60 min, 0.5 μM	1.39
[2H]C([2H])([2H])Oc1cnc(C(=O)Nc2ccc(F)c([C@]3(CF)CC[C@@](F)(CF)C(N)=N3)c2)cn1	efflux ratio at 60 min, 0.5 μM	0.73
[2H]C([2H])([2H])Oc1cnc(C(=O)Nc2ccc(F)c([C@]3(CF)CC[C@](F)(CF)C(N)=N3)c2)cn1	efflux ratio at 60 min, 0.5 μM	0.85
[2H]C([2H])([2H])Oc1cnc(C(=O)Nc2cc(F)c(F)c([C@]3(C)CC[C@](F)(CF)C(N)=N3)c2)cn1	efflux ratio at 60 min, 0.5 μM	0.96
